Reported microsomal CLint at 1 μM values for a set of compounds
- ASSAY_INFO: Microsomal stability assay, human liver microsomes (HLM)
- Assay type: in vitro ADME
- ASSAY_CONTEXT: 0.5 mg/mL protein, 1 μM substrate, 37° C.
PROPERTY_NAME: microsomal CLint at 1 μM

>>> result("O=C1CCc2c(Oc3ccc4c(c3)CC(c3nc(C5CCOCC5)c[nH]3)CO4)ccnc2N1 (stereo not drawn)")
"20.7 µL/min/mg"
>>> result("O=C1CCc2c(Oc3ccc4c(c3)CC(c3nc(-c5ccnc(C6CC6)c5)c[nH]3)CO4)ccnc2N1 (stereo not drawn)")
"74.2 µL/min/mg"
>>> result("O=C(CN1CC(O)C1)Nc1cc(Oc2ccc3c(c2)CC(c2nc(-c4ccccc4)c[nH]2)CO3)ccn1 (stereo not drawn)")
"19.2 µL/min/mg"
>>> result("CC(C)c1cc(-c2c[nH]c(C3COc4ccc(Oc5ccnc6c5CCC(=O)N6)cc4C3)n2)ccn1 (stereo not drawn)")
"190 µL/min/mg"
>>> result("Cc1cc(-c2c[nH]c(C3COc4ccc(Oc5ccnc6c5CCC(=O)N6)cc4C3)n2)n(C2CC2)n1 (stereo not drawn)")
"38.5 µL/min/mg"
>>> result("COc1ccsc1-c1c[nH]c(C2COc3ccc(Oc4ccnc5c4CCC(=O)N5)cc3C2)n1 (stereo not drawn)")
"97.5 µL/min/mg"
>>> result("Cn1ncc2ccc(-c3c[nH]c(C4COc5ccc(Oc6ccnc7c6CCC(=O)N7)cc5C4)n3)cc21 (stereo not drawn)")
"23.6 µL/min/mg"
>>> result("CCn1nc(C)cc1-c1c[nH]c(C2COc3ccc(Oc4ccnc5c4CCC(=O)N5)cc3C2)n1 (stereo not drawn)")
"65.8 µL/min/mg"
>>> result("CC(=O)Nc1cc(Oc2ccc3c(c2)CC(c2nc(-c4ccccc4)c[nH]2)CO3)ccn1 (stereo not drawn)")
"30.3 µL/min/mg"
>>> result("O=C1CCc2c(Oc3ccc4c(c3)CC(c3nc5ccncc5[nH]3)CO4)ccnc2N1 (stereo not drawn)")
"13.6 µL/min/mg"
>>> result("CCc1cc(-c2c[nH]c(C3COc4ccc(Oc5ccnc6c5CCC(=O)N6)cc4C3)n2)n(C)n1 (stereo not drawn)")
"48.1 µL/min/mg"
>>> result("O=C1CCc2c(Oc3ccc4c(c3)CN(c3nc5ccccc5[nH]3)CC4)ccnc2N1")
"19.8 µL/min/mg"
>>> result("CC(C)(C)c1cc(-c2c[nH]c(C3COc4ccc(Oc5ccnc6c5CCC(=O)N6)cc4C3)n2)ccn1 (stereo not drawn)")
"207 µL/min/mg"
>>> result("CCc1cc(-c2c[nH]c(C3COc4ccc(Oc5ccnc6c5CCC(=O)N6)cc4C3)n2)n(C2CC2)n1 (stereo not drawn)")
"82.1 µL/min/mg"
>>> result("O=C(Nc1cc(Oc2ccc3c(c2)CC(c2nc(-c4ccccc4)c[nH]2)CO3)ccn1)C1CC1 (racemic)")
"58.1 µL/min/mg"

###

Reported IC50 values for a set of compounds
- System: RAF dimers in HCT-116 cells
- ASSAY_INFO: HCT-116 AlphaLISA SureFire pERK1/2 cellular assay (dimer)
- Assay type: cell-based
- ASSAY_CONTEXT: Homo sapiens, HCT-116; HCT116 cells, dimer, 1 hr; read-out: pERK HCT116 dimer (1 hr) plC50 (converted)
PROPERTY_NAME: IC50 (nM)

>>> numeric_value("Cn1nc(C(F)(F)F)cc1-c1c[nH]c(C2COc3ccc(Oc4ccnc5c4CCC(=O)N5)cc3C2)n1 (centres unmarked)")
57.5
>>> numeric_value("O=C(CN1CC(O)C1)Nc1cc(Oc2ccc3c(c2)CC(c2nc(-c4ccccc4)c[nH]2)CO3)ccn1 (centres unmarked)")
126
>>> numeric_value("CC(C)CCc1c[nH]c(C2COc3ccc(Oc4ccnc5c4CCC(=O)N5)cc3C2)n1 (centres unmarked)")
87.1
>>> numeric_value("Cc1ccc(-c2c[nH]c(C3COc4ccc(Oc5ccnc6c5CCC(=O)N6)cc4C3)n2)s1 (centres unmarked)")
50.1
>>> numeric_value("Cc1cc(-c2c[nH]c(C3COc4ccc(Oc5ccnc6c5CCC(=O)N6)cc4C3)n2)n(C2CC2)n1 (centres unmarked)")
363
>>> numeric_value("CN1CCC(C(=O)Nc2cc(Oc3ccc4c(c3)CC(c3nc(-c5ccccc5)c[nH]3)CO4)ccn2)CC1 (centres unmarked)")
437
>>> numeric_value("O=C(Cn1cncn1)Nc1cc(Oc2ccc3c(c2)CC(c2nc(-c4ccccc4)c[nH]2)CO3)ccn1 (centres unmarked)")
38
>>> numeric_value("O=C(CN1CCCC1)Nc1cc(Oc2ccc3c(c2)CC(c2nc(-c4ccccc4)c[nH]2)CO3)ccn1 (centres unmarked)")
275
>>> numeric_value("O=C(Nc1cc(Oc2ccc3c(c2)CC(c2nc(-c4ccccc4)c[nH]2)CO3)ccn1)C1CC(F)(F)C1 (centres unmarked)")
219
>>> numeric_value("Cc1cc(-c2c[nH]c(C3COc4ccc(Oc5ccnc6c5CCC(=O)N6)cc4C3)n2)n(CC(F)(F)F)n1 (centres unmarked)")
245
>>> numeric_value("O=C1CCc2c(Oc3ccc4c(c3)CC(c3nc5ccncc5[nH]3)CO4)ccnc2N1 (centres unmarked)")
32.4

###

Reported IC50 values for a set of compounds
- System: constitutive ERK phosphorylation in HCT-116 cells
- ASSAY_INFO: HCT-116 AlphaLISA SureFire pERK1/2 cellular assay
- Format: cell-based, human
- ASSAY_CONTEXT: Homo sapiens, HCT-116; HCT116 cells, 2 hr, absolute IC50; read-out: pERK HCT116 (2 hr) Abs pIC50 (converted)
PROPERTY_NAME: IC50 (nM)

>>> numeric_value("COc1cc(-c2c[nH]c(C3COc4ccc(Oc5ccnc6c5CCC(=O)N6)cc4C3)n2)ccn1 (centres unmarked) [Compound 19]")
316
>>> numeric_value("O=C1CCc2c(Oc3ccc4c(c3)CC(c3nc5cc(F)c(F)cc5[nH]3)CO4)ccnc2N1 (centres unmarked) [Compound 23]")
316
>>> numeric_value("O=C1CCc2c(Oc3ccc4c(c3)CC(c3nc5cc(C(F)(F)F)ncc5[nH]3)CO4)ccnc2N1 (racemic) [Compound 32]")
229
>>> numeric_value("O=C1CCc2c(Oc3ccc4c(c3)CC(c3nc(-c5cccc(C(F)(F)F)c5)c[nH]3)CO4)ccnc2N1 (centres unmarked) [Compound 12]")
257
>>> numeric_value("O=C1CCc2c(Oc3ccc4c(c3)CC(c3nc(-c5ccnc(C(F)(F)F)c5)c[nH]3)CO4)ccnc2N1 (centres unmarked) [Compound 8]")
174

###

Reported mPPB (% free) values for a set of compounds
- ASSAY_INFO: Plasma protein binding assay, mouse plasma (mPPB)
- Assay type: in vitro ADME
- ASSAY_CONTEXT: 5 μM, equilibrium dialysis 4 hours at 37° C.
PROPERTY_NAME: mPPB (% free)

>>> numeric_value("CC(=O)Nc1cc(Oc2ccc3c(c2)CC(c2nc(-c4ccccc4)c[nH]2)CO3)ccn1 (stereo not drawn) [Compound 156]")
0.4
>>> numeric_value("O=C1CCc2c(Oc3ccc4c(c3)CC(c3nc(-c5ccc(C(F)(F)F)nc5)c[nH]3)CO4)ccnc2N1 (stereo not drawn) [Compound 127]")
0.2
>>> numeric_value("Cc1ccc(-c2c[nH]c(C3COc4ccc(Oc5ccnc6c5CCC(=O)N6)cc4C3)n2)s1 (stereo not drawn) [Compound 110]")
0.1
>>> numeric_value("CCc1cc(-c2c[nH]c(C3COc4ccc(Oc5ccnc6c5CCC(=O)N6)cc4C3)n2)n(C)n1 (stereo not drawn) [Compound 111]")
1.73
>>> numeric_value("O=C(Cn1ccnc1)Nc1cc(Oc2ccc3c(c2)CC(c2nc(-c4ccccc4)c[nH]2)CO3)ccn1 (stereo not drawn) [Compound 144]")
0.8
>>> numeric_value("O=C1CCc2c(Oc3ccc4c(c3)CC(c3nc(-c5cncc(C(F)(F)F)c5)c[nH]3)CO4)ccnc2N1 (stereo not drawn) [Compound 103]")
0.6
>>> numeric_value("O=C1CCc2c(Oc3ccc4c(c3)CC(c3nc(-c5ccnc(C6CC6)c5)c[nH]3)CO4)ccnc2N1 (stereo not drawn) [Compound 119]")
0.9
>>> numeric_value("Cc1cc(-c2c[nH]c(C3COc4ccc(Oc5ccnc6c5CCC(=O)N6)cc4C3)n2)n(CC(F)(F)F)n1 (stereo not drawn) [Compound 126]")
0.7
>>> numeric_value("CC(C)(C)c1cc(-c2c[nH]c(C3COc4ccc(Oc5ccnc6c5CCC(=O)N6)cc4C3)n2)ccn1 (stereo not drawn) [Compound 121]")
0.4
>>> numeric_value("O=C(CN1CC(O)C1)Nc1cc(Oc2ccc3c(c2)CC(c2nc(-c4ccccc4)c[nH]2)CO3)ccn1 (stereo not drawn) [Compound 153]")
0.6
>>> numeric_value("O=C(CN1CCOCC1)Nc1cc(Oc2ccc3c(c2)CC(c2nc(-c4ccccc4)c[nH]2)CO3)ccn1 (stereo not drawn) [Compound 149]")
0.14
>>> numeric_value("Cn1nc(C(F)(F)F)cc1-c1c[nH]c(C2COc3ccc(Oc4ccnc5c4CCC(=O)N5)cc3C2)n1 (stereo not drawn) [Compound 107]")
0.3
>>> numeric_value("CN1CCC(C(=O)Nc2cc(Oc3ccc4c(c3)CC(c3nc(-c5ccccc5)c[nH]3)CO4)ccn2)CC1 (stereo not drawn) [Compound 147]")
0.8
>>> numeric_value("Cn1ncc2ccc(-c3c[nH]c(C4COc5ccc(Oc6ccnc7c6CCC(=O)N7)cc5C4)n3)cc21 (stereo not drawn) [Compound 130]")
0.2
>>> numeric_value("Cc1cc(-c2c[nH]c(C3COc4ccc(Oc5ccnc6c5CCC(=O)N6)cc4C3)n2)n(C(C)C)n1 (stereo not drawn) [Compound 112]")
2.0
